Test: NCI Yeast Anticancer Drug Screen. Data for the rad18 strain (AID 177)
Conditions: S. cerevisiae rad18 mutant growth inhibition; at 100.0 µM; stronger effect = higher value
The panel holds about 79,000 compounds, 15% with a hit somewhere; the sample as a whole holds those more often.
// false (0) strictly below 90% in growth inhibition; true (1) otherwise

>  <compound>
NNC(=O)CCc1ccc2ccc3ccccc3c2c1

>  <class.assignment>
false (0)

$$$$
>  <compound>
CC(=O)[O][Bi]([c]1ccccc1)[c]1ccccc1

>  <class.assignment>
true (1)

$$$$
>  <compound>
CC[n+]1ccc2c(C)c3[nH]c4ccc(O)cc4c3c(C)c2c1

>  <class.assignment>
false (0)

$$$$
>  <compound>
COc1ccccc1C(=O)OCC1CCCN2CCCCC12 (configuration not stated)

>  <class.assignment>
true (1)

$$$$
>  <compound>
CC(=O)ON1C(=O)c2cccc3cccc(c23)C1=O

>  <class.assignment>
true (1)

$$$$
>  <compound>
COC(=O)CSSCc1ccc([N+](=O)[O-])cc1

>  <class.assignment>
true (1)

$$$$

Determine whether measured growth inhibition meets or exceeds 90% for c1ccc(-c2nc3cccnc3s2)cc1
false (0)
